Measured fold induction at 10 µM accompanies every entry in the list below.
test system: YFP-SUMO1; experiment: YFP-SUMO1 accumulation (cell image) in HEK-293 cells expressing YFP-SUMO1 and pcDNA3.0-SERCA2a; assay type: cell-based; conditions: Homo sapiens, HEK293, 24 hours, increase vs. DMSO
assay-readout: fold induction at 10 µM

compound	tested-target	reading
COc1cccc2sc(Nc3nnc(-c4ccc(F)cc4)o3)nc12 [Example 5]	YFP-SUMO1	2.54
COc1ccc2nc(Nc3nnc(-c4ccccc4OC)o3)sc2c1 [Example 8]	YFP-SUMO1	2.37
COc1cccc(-c2nnc(Nc3nc4c(F)cccc4s3)o2)c1 [Example 3]	YFP-SUMO1	2.49

* * *

assay: Solubility (Table 2); conditions: DMSO, organic solvent or mixture
assay-readout: solubility (mM)

smiles-entry	assay-readout	units-of-measure	comparison-sign	reading
Fc1ccc(-c2nnc(Nc3nc4ccc(F)cc4s3)o2)cc1	solubility	mM	<	2.5
COc1ccc(-c2nnc(Nc3nc4cc(OC)c(OC)cc4s3)o2)cc1	solubility	mM	=	5
COc1cccc(-c2nnc(Nc3nc4ccc(F)cc4s3)o2)c1	solubility	mM	<	2.5
COc1cccc2sc(Nc3nnc(-c4ccc(F)cc4)o3)nc12	solubility	mM	=	10
Fc1ccc(-c2nnc(Nc3nc4c(F)cccc4s3)o2)cc1	solubility	mM	=	10

* * *

Assay: Pharmacokinetic analysis in mice
Conditions: mouse, in vivo, ip; murine model, 10 mg/kg intraperitoneal dose
Procedure: FIG. 12 depicts the pharmacokinetic analysis of the compound of Example 1 in mice at a 10 mg/kg intraperitoneal dose.

smiles-entry	Cmax
COc1ccc(-c2nnc(Nc3nc4c(OC)cccc4s3)o2)cc1	2240 nM

* * *

assay: Solubility (Table 2); settings: DMSO, organic solvent or mixture

molecule	comparison-sign	solubility [mM]
COc1ccc2nc(Nc3nnc(-c4ccccc4OC)o3)sc2c1 [Example 8]	=	10
COc1ccc(-c2nnc(Nc3nc4cc(OC)ccc4s3)o2)cc1 [Example 16]	<	2.5
Fc1cccc2sc(Nc3nnc(-c4ccccc4)o3)nc12 [Example 7]	=	10
